procedure_summary: Human serum binding by ultrafiltration
Assay type: in vitro ADME
reported_conditions: pooled human serum, ultrafiltration, 10 minutes at 37° C.
Catalogue of compounds with associated HSB, human serum binding

Nc1nc(C(=NO)C(=O)N[C@@H]2C(=O)N3C(C(=O)O)=C(Sc4cnns4)CSC23)c(Cl)s1 (stereo partly drawn) [Compound 43] ... 96% (−)
Nc1nc(/C(=N/O)C(=O)N[C@@H]2C(=O)N3C(C(=O)O)=C(Sc4ccncc4CO)CS[C@H]23)c(Cl)s1 [Compound 28] ... >99%

Kindly note the recorded HSB, human serum binding for Nc1nnc(SCc2cnccc2SC2=C(C(=O)O)N3C(=O)[C@@H](NC(=O)/C(=N\O)c4nc(N)sc4Cl)[C@H]3SC2)s1 [Compound 26] , which is >99%
